- protocol: HoxA9-arrested leukemia cell differentiation promoters – flow cytometry, MLPCN library, primary screen (AID 624256);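 for normalized GFP-positive differentiation: cells exposed to compound for four days before flow analysis; 0% = DMSO wells and 100% = fulvestrant positive control at 5 µM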
- particulars: ER-HoxA9 myeloid progenitors, lysozyme-GFP differentiation, at 10 µM; stronger effect = higher value
Screen size: about 360,000 compounds; about 3,700 (1%) were called active. Another 2% or so got no clear call; they are omitted. The entries come from a sample that favours actives as a whole.
assay_readout: normalized GFP-positive differentiation

Cc1cc2nc(C)n(CCCNC(=O)Nc3ccccc3)c2cc1C; 33% (active)
O=C(C[C@H]1CC[C@@H](NC(=O)c2ccncc2)[C@@H](CO)O1)NCC1CC1; inactive
O=C(CN(c1ccccc1)S(=O)(=O)c1ccc(Cl)cc1)Nc1ccccc1C(=O)N1CCCC1; 34.3% (active)
O=C(Nc1ccccc1C(=O)N1CCCCCC1)c1ccccc1Cl; inactive
COc1cc(N=Cc2c(O)c3ccccc3oc2=O)c(OC)cc1Cl; 239% (active)
Cc1cccn2c(=O)c(/C=C3\SC(=S)N(CC(C)C)C3=O)c(NCCCOC(C)C)nc12; 235% (active)
COc1ccccc1N(CC(=O)Nc1ccccc1C(=O)N1CCCC1)S(C)(=O)=O; inactive
COCOc1cccc(CN2CCC(C)(Oc3ccc(SC)cc3)C2)c1 (stereo not given); inactive
COc1ccccc1CNC(=O)c1cc(=O)c2ccccc2o1; inactive
CCc1nc2ccc(C(=O)Nc3cccc(OC)c3)cn2c1N(CCC(C)C)CCN(C)C; inactive

src = PubChem BioAssay AID624256
